Test system: KM12 colon
measurement-description: NCI-60 one-dose screen, 48 h (100 = growth as untreated, 0 = no growth, -100 = all killed)
measurement-conditions: 10 µM unless noted
Compounds without any hit were thinned out: in the full panel of roughly 83,000, 20% have a hit.
Rule for this label: Met means growth is less than 80%; Not met means growth is at least 80%.

smiles-record	class-name
C=CCN(/C=C1/C(=O)O[C@H](COC)[C@@]2(C)C1=C(O)C(=O)C1=C2[C@H](OC(C)=O)C[C@]2(C)C(=O)CC[C@@H]12)CC=C	Met

Ask: Strictly below 80% in growth? COc1ccc(Nc2ncccc2NC(=O)c2cn(Cc3cccc(Oc4ccccc4)c3)nn2)cc1
Reply: Not met

Ask: Now the same for CCOC(=O)c1sc(NC(=O)COc2ccc(/C=C3\Cc4ccc(Cl)cc4C3=O)cc2)nc1C
Reply: Not met

Ask: Now the same for C[C@@H](Nc1cc(F)cc(F)c1)c1cc(C(=O)N(C)C)cc2c(=O)cc(N3CCOCC3)oc12
Reply: Met

====

Tested on: UACC-62 melanoma
measurement-description: NCI-60 one-dose screen, 48 h (100 = growth as untreated, 0 = no growth, -100 = all killed)
measurement-conditions: 10 µM unless noted
Compounds without any hit were thinned out: in the full panel of roughly 83,000, 20% have a hit.
Rule for this label: yes means growth is less than 20%; no means growth is at least 20%.

Study these solved cases before continuing.
smiles-record	class-name
CO[C@H]1C[C@@H]2CC[C@@H](C)[C@@](O)(O2)C(=O)C(=O)N2CCCC[C@H]2C(=O)O[C@H]([C@H](C)C[C@@H]2CC[C@@H](OCCO)[C@H](OC)C2)CC(=O)[C@H](C)/C=C(\C)[C@@H](O)[C@H](OC)C(=O)[C@H](C)C[C@H](C)\C=C/C=C/C=C/1C	no
COCCOc1cnc2ccn([C@H](C)c3nnc4c(F)cc(-c5cnn(C)c5)cn34)c(=O)c2c1	no
O=C(Cn1c(=O)ccn(CCCCCCCCOc2ccc(Br)cc2)c1=O)Nc1ccc(Oc2ccc(Cl)cc2)cc1	no
O=C(Cn1ccnc1)Nc1ccc(-c2nc3ccccc3s2)cc1	no
CCN1CCN(Cc2ccc(NC(=O)Nc3nc(-c4cc(OC)c(OC)c(OC)c4)cs3)cc2C(F)(F)F)CC1	yes

Ask: Strictly below 20% in growth? CC(C)(C)c1nc(-c2cccc(NS(=O)(=O)c3c(F)cccc3F)c2F)c(-c2ccnc(N)n2)s1
Reply: no

Ask: Now the same for Cc1cc(Nc2ncc(Cl)c(Nc3ccccc3S(=O)(=O)C(C)C)n2)c(OC(C)C)cc1C1CCNCC1
Reply: yes

====

Tested on: PC-3 prostate
measurement-description: NCI-60 one-dose screen, 48 h (100 = growth as untreated, 0 = no growth, -100 = all killed)
measurement-conditions: 10 µM unless noted
About 83,000 compounds went through this panel and 20% of them were active in at least one assay; those are over-represented in the sample as a whole. Activity calls are given as the source filed them. How the source made its calls: active means growth percent below 10; inactive means the rest.
value-type: growth

compound	target-or-test-system	value-type	measured
N#CC[C@H](C1CCCC1)n1cc(-c2ncnc3[nH]ccc23)cn1	PC-3 prostate	growth	59% (inactive)
COC(=O)CC[C@@H](C)[C@H]1CC[C@H]2C3CC[C@@H]4C[C@@H]5CC[C@]4(C)[C@@]3(O5)[C@H](Br)[C@@H](Br)[C@]12C (some centres undefined)	PC-3 prostate	growth	77.9% (inactive)
CC(C)NC[C@@H](C(=O)N1CCN(c2ncnc3c2[C@H](C)C[C@H]3O)CC1)c1ccc(Cl)cc1	PC-3 prostate	growth	33% (inactive)
Cc1ncc(-c2ccnc(Nc3ccc(S(C)(=O)=O)cc3)n2)n1C(C)C	PC-3 prostate	growth	-11.1% (active)
CCOc1cccc(/C=N/NC(=O)c2ccccc2Nc2ccnc(C(F)(F)F)c2)c1O	PC-3 prostate	growth	54.2% (inactive)

Ask: Name the recorded growth for Cn1ncc(Cl)c1-c1cc(C(=O)N[C@H](CN)Cc2cccc(F)c2)sc1Cl .
Reply: 9.61% (active)

Ask: Now the same for COc1cc2c3c(c1)nc(C)n3CCC2
Reply: 90.1% (inactive)

Ask: Now the same for C=C1C(=O)O[C@H]2[C@H]1CC/C(Cn1cc(-c3cc(C)c(C)cc3C)nn1)=C\CC[C@@]1(C)O[C@@H]21
Reply: -69.7% (active)

Ask: Now the same for COC(=O)C1=C(C(=O)OC)C23C=C(C)C1C2=C(C)C1(CC1)[C@@](C)(O)C3=O (some centres undefined)
Reply: 11.5% (inactive)
